assaySystem: Glycogen phosphorylase, liver form (Homo sapiens, UniProt P06737)
Sequence (P06737 whole entry): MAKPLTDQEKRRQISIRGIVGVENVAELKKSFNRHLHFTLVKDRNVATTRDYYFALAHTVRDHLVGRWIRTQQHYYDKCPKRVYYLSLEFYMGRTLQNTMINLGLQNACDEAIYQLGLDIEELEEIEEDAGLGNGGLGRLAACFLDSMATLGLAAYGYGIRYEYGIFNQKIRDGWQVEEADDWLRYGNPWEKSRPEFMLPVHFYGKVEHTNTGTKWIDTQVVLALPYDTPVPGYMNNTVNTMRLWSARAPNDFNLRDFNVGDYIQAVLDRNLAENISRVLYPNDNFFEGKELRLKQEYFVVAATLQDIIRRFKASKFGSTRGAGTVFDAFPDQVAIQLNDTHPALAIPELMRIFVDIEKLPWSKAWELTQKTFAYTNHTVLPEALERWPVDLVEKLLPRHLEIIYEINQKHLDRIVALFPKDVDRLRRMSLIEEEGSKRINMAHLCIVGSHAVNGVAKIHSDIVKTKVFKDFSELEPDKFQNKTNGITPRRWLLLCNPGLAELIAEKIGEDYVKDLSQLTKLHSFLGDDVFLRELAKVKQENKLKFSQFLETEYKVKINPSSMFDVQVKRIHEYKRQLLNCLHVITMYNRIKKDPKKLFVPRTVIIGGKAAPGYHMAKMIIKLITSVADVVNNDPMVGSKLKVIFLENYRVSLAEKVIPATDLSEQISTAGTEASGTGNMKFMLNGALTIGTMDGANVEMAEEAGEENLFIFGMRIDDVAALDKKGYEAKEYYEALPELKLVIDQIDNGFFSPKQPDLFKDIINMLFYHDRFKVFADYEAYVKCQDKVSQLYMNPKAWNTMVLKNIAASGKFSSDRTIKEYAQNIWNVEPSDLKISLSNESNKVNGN
methodNotes: Inhibition of recombinant human liver GPa by multienzyme coupled assay
parameter: pIC50
Field pIC50 (float): negative decimal logarithm of the concentration in molar.

O=C(N[C@@H]1Cc2ccc(F)cc2[C@H]1O)c1cc2sc(Cl)c(Cl)c2[nH]1	7.31
CN(C)C(=O)[C@H](Cc1ccccc1)NC(=O)c1cc2cc(Br)sc2[nH]1	7.51

Report pIC50 for CNC(=O)[C@H](Cc1ccccc1)NC(=O)c1cc2scc(Cl)c2[nH]1 please.
6.41

Using the record for O=C(N[C@@H]1Cc2ccccc2[C@H]1O)c1cc2sc(Cl)c(Cl)c2[nH]1 , report its pIC50.
8.05

* * *

Reported pIC50 values for a set of compounds
assaySystem: Glycogen phosphorylase, liver form (Homo sapiens)
methodNotes: Inhibition of recombinant human liver GPa by multienzyme coupled assay
Recall that pIC50 is obtained by taking minus log10 of the concentration measured in molar.

Here are 3 compounds together with their reported answers.
CNC(=O)[C@H](Cc1ccccc1)NC(=O)c1cc2sc(Cl)cc2[nH]1	6.24
O=C(NC1Cc2ccccc2NC1=O)c1cc2cc(Cl)ccc2[nH]1 (stereo unspecified)	7.07
CN(C)C(=O)[C@H](Cc1ccccc1)NC(=O)c1cc2cc(Cl)sc2[nH]1	7.77

Using the record for O=C(NC1Cc2ccccc2C1)c1cc2cc(Cl)sc2[nH]1 , report its pIC50.
6.09

Field request: pIC50 | item: CN(C)C(=O)[C@H](Cc1ccccc1)NC(=O)c1cc2sc(Cl)c(Cl)c2[nH]1
8.30

* * *

assaySystem: Glycogen phosphorylase, liver form (Homo sapiens)
Sequence (P06737 whole entry): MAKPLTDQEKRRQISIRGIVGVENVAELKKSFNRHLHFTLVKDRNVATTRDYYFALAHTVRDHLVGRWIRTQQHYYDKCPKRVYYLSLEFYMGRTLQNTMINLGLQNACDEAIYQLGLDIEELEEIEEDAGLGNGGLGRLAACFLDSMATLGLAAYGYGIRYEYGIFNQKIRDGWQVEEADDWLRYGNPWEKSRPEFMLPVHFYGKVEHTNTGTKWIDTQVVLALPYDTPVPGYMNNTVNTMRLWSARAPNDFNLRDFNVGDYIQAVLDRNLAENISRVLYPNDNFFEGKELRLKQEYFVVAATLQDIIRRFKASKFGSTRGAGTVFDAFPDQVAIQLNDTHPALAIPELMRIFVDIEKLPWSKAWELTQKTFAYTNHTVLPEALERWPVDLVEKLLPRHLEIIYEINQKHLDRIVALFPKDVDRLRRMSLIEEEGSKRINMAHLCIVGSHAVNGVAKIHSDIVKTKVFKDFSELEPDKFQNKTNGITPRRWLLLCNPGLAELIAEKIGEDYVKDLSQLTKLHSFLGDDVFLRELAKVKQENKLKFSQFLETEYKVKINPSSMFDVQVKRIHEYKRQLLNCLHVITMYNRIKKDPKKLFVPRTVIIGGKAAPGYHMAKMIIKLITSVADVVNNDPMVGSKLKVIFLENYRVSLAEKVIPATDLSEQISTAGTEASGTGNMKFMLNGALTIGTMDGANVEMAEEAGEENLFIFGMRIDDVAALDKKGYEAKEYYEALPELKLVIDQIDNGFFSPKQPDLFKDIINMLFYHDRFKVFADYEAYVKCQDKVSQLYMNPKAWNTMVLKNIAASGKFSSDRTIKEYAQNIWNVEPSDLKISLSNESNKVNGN
methodNotes: Inhibition of recombinant human liver GPa by multienzyme coupled assay
Output true for records whose IC50 is lower than 0.2 µM, false for records at or above 0.2 µM.

Sample answers from the record:
CN(C)C(=O)[C@H](Cc1ccccc1)N(C)C(=O)c1cc2sc(Br)c(Br)c2[nH]1	false
CN(C)C(=O)[C@H](Cc1ccccc1)NC(=O)c1cc2cc(Cl)ccc2[nH]1	true
CN(C)C(=O)[C@H](Cc1ccccc1)NC(=O)c1cc2sc(Br)c(Br)c2[nH]1	true

# TODO verify IC50 < 0.2 µM strictly for this molecule: O=C(N[C@@H]1Cc2ccc(Cl)cc2[C@H]1O)c1cc2sc(Cl)c(Cl)c2[nH]1
true

Quick check: IC50 of CN(C)C(=O)[C@H](Cc1ccccc1)NC(=O)c1cc2ccsc2[nH]1 under 0.2 µM?
false
